Target or system UniProt:Q99835; recorded quantity pIC50.
Sequence (Q99835 28-787): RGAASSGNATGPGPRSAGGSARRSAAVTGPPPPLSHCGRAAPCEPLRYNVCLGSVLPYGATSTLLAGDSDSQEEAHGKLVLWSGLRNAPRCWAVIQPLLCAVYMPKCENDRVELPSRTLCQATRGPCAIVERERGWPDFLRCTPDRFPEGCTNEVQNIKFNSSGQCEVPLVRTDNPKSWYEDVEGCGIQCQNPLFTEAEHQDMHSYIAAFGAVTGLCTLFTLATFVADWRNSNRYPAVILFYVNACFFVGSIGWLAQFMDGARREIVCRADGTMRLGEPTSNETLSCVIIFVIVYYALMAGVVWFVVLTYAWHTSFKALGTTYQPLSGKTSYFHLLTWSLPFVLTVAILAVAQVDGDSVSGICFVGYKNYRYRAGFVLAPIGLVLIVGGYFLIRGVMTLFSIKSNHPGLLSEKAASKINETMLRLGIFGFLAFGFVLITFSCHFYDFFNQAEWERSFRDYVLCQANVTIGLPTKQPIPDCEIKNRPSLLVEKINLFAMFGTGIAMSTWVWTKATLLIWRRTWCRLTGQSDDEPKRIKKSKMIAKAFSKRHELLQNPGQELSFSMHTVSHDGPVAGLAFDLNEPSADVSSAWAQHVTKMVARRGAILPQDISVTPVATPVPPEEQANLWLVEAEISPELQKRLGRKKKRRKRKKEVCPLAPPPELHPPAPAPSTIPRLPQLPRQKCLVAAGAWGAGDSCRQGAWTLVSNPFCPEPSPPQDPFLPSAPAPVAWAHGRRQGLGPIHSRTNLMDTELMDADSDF
pIC50: −log10 of the molar value.

[
  {
    "COMPOUND": "CCCCS(=O)(=O)NC1Cc2ccc(NC(=O)c3cccc(C)c3-c3ccc(C(F)(F)F)cc3)cc2C1 (stereo not shown) [Example 102]",
    "ASSAYED_SYSTEM": "UniProt:Q99835",
    "pIC50": 6.66
  },
  {
    "COMPOUND": "Cc1cccc(C(=O)Nc2ccc3c(c2)C[C@@H](NCc2cccs2)C3)c1-c1ccc(C(F)(F)F)cc1",
    "ASSAYED_SYSTEM": "UniProt:Q99835",
    "pIC50": 7.85
  },
  {
    "COMPOUND": "Cc1cccc(C(=O)Nc2ccc3c(c2)CC(NCc2cc4ccccc4o2)C3)c1-c1ccc(C(F)(F)F)cc1 (stereo not shown)",
    "ASSAYED_SYSTEM": "UniProt:Q99835",
    "pIC50": 8.52
  },
  {
    "COMPOUND": "CCCCS(=O)(=O)NC1Cc2ccc(NC(=O)c3cccc(C)c3-c3ccc(C(F)(F)F)cc3)cc2C1 (stereo not shown) [Example 86]",
    "ASSAYED_SYSTEM": "UniProt:Q99835",
    "pIC50": 6.58
  }
]

FYI, the data here is from patent US20090306149A1.
